B1: CPEB3 Ribozyme (parent)
chain: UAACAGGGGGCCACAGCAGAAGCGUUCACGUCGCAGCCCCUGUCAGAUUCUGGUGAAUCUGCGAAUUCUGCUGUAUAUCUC

Variants of: B1
Test Method Notes: self-cleavage, relative activity (ratio to wild type); higher = more cleavage; in vitro, sequencing
Attribute Measured: self-cleavage

INSERT INTO assay_data (residue_change, attribute_measured, observed_value) VALUES
  ('G10A G55U', 'self-cleavage', 0.07),
  ('C4U G30A', 'self-cleavage', 0.22),
  ('U54C A75G', 'self-cleavage', 0.88),
  ('U72G U78C', 'self-cleavage', 1.01),
  ('A5C A56G', 'self-cleavage', 0.75),
  ('A35U U69G', 'self-cleavage', 0.26),
  ('U41A U49C', 'self-cleavage', 0.23),
  ('U31A U41C', 'self-cleavage', 0.51),
  ('U43C A75C', 'self-cleavage', 0.84),
  ('C37G U74C', 'self-cleavage', 0.9),
  ('G36U G63U', 'self-cleavage', 0.12),
  ('G61A G70U', 'self-cleavage', 0.12),
  ('A3G C11U', 'self-cleavage', 0.51),
  ('U1C A45U', 'self-cleavage', 0.39),
  ('G19A A35U', 'self-cleavage', 0.17),
  ('G8C A13U', 'self-cleavage', 0.16),
  ('U25C A35U', 'self-cleavage', 0.24),
  ('G19A U54C', 'self-cleavage', 0.23),
  ('G55A A77G', 'self-cleavage', 0.96),
  ('G63U U80A', 'self-cleavage', 0.98),
  ('G42A U43C', 'self-cleavage', 0.29),
  ('U78A U80G', 'self-cleavage', 1.29),
  ('G8A U60C', 'self-cleavage', 0.23),
  ('A13G A15G', 'self-cleavage', 0.35),
  ('A21U A56G', 'self-cleavage', 0.25),
  ('A20G U54A', 'self-cleavage', 0.97),
  ('C11U U80C', 'self-cleavage', 0.45),
  ('A20U U51A', 'self-cleavage', 0.25),
  ('A20G G63A', 'self-cleavage', 0.63),
  ('U43C U49C', 'self-cleavage', 0.24),
  ('A56G U58G', 'self-cleavage', 0.22),
  ('G52U U54C', 'self-cleavage', 1.14),
  ('G24A U60A', 'self-cleavage', 0.28),
  ('G33C A45U', 'self-cleavage', 0.17),
  ('C12U A47C', 'self-cleavage', 0.76),
  ('G36C U66C', 'self-cleavage', 0.23),
  ('C39A U43C', 'self-cleavage', 0.4),
  ('A21C A56G', 'self-cleavage', 0.3),
  ('U25A U78C', 'self-cleavage', 0.13),
  ('U41C C50U', 'self-cleavage', 1.08),
  ('U41A C79G', 'self-cleavage', 0.37),
  ('A3U U66C', 'self-cleavage', 0.55),
  ('C12U A13G', 'self-cleavage', 0.74),
  ('A5U C34A', 'self-cleavage', 0.65),
  ('A45G A77G', 'self-cleavage', 0.87),
  ('U58G U69C', 'self-cleavage', 0.2),
  ('G10A A64U', 'self-cleavage', 0.15),
  ('U26C C50G', 'self-cleavage', 0.22),
  ('C37U U60A', 'self-cleavage', 0.24),
  ('G36A A64G', 'self-cleavage', 0.15),
  ('A20G U26G', 'self-cleavage', 0.36),
  ('A64G A75U', 'self-cleavage', 1.01),
  ('A57U U67A', 'self-cleavage', 0.38),
  ('C32A U67A', 'self-cleavage', 0.13),
  ('C37A U48C', 'self-cleavage', 0.41),
  ('U43A G61C', 'self-cleavage', 0.36),
  ('U74A U76C', 'self-cleavage', 1.34),
  ('A65C U78C', 'self-cleavage', 0.15),
  ('C44U A47G', 'self-cleavage', 0.35),
  ('A5G U67A', 'self-cleavage', 0.39),
  ('A13C A20G', 'self-cleavage', 0.72),
  ('C38U U80C', 'self-cleavage', 1.01),
  ('C23U A64C', 'self-cleavage', 0.09),
  ('C11U U26C', 'self-cleavage', 0.31),
  ('A13G U80A', 'self-cleavage', 1.07),
  ('C40A A56G', 'self-cleavage', 0.23),
  ('A47C U67A', 'self-cleavage', 0.23),
  ('G10A C71U', 'self-cleavage', 0.08),
  ('U54C G73A', 'self-cleavage', 1.26),
  ('A35G A75U', 'self-cleavage', 1.27),
  ('C27A U76C', 'self-cleavage', 0.21),
  ('A5G G42A', 'self-cleavage', 0.4),
  ('U49C C71A', 'self-cleavage', 0.17),
  ('G24A U51C', 'self-cleavage', 0.31),
  ('C14U U43C', 'self-cleavage', 1.08),
  ('G55U G61A', 'self-cleavage', 0.6),
  ('G19A A57G', 'self-cleavage', 0.26),
  ('U41A C44U', 'self-cleavage', 0.23),
  ('G10U G52U', 'self-cleavage', 0.09),
  ('A20U G33C', 'self-cleavage', 0.15),
  ('U72C G73U', 'self-cleavage', 1.48),
  ('A13G G16A', 'self-cleavage', 0.24),
  ('C23U A57G', 'self-cleavage', 0.31),
  ('G22U A56G', 'self-cleavage', 0.2),
  ('G30U C62A', 'self-cleavage', 0.08),
  ('A5G U66G', 'self-cleavage', 0.44),
  ('A21U C29A', 'self-cleavage', 0.21),
  ('C44U U69A', 'self-cleavage', 0.13),
  ('G16C A28G', 'self-cleavage', 0.15),
  ('A57G U66G', 'self-cleavage', 0.53),
  ('A5U C29A', 'self-cleavage', 0.36);
